Would you kindly list viability increase for each of these compounds?
# Assay: viability gain of MRP-1-high H69AR cells under doxorubicin, pilot screen, MRP-1 activator project, CellTiter-Glo, duplicate (AID 807);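 note: compound pretreatment 18-22 h then 72 h combined with doxorubicin; 0% = doxorubicin alone and 100% = vehicle without doxorubicin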
# Setup conditions: H69AR viability with doxorubicin, CellTiter-Glo luminescence; at 10 µM; hits give high values
Respond numerically; units are % and should not be typed.

Give me measured viability increase, please, for this compound: Cc1ccc(-c2nnc3n2N=C(c2ccc(Br)cc2)CS3)cc1
-2.58

Give me measured viability increase, please, for this compound: O=C(CCn1c(=O)oc2ccccc21)N1CCN(c2ccc(F)cc2)CC1
-0.8

Give me measured viability increase, please, for this compound: O=C(CCC1CC(=O)Nc2ccccc21)NCc1cccnc1 (stereo not given)
-1.06

Give me measured viability increase, please, for this compound: CCOC(=O)C1C(=O)CC(C)(O)C(C(=O)OCC)C1c1cccs1 (stereo not given)
-2.92

Give me measured viability increase, please, for this compound: COc1ccc(-n2c(=O)c3ccccc3n(CC(=O)NC3CCCC3)c2=O)c(OC)c1
-0.98

Give me measured viability increase, please, for this compound: CCOCCCNC(=O)C(c1ccc(Cl)cc1)N1CCN(c2ccccc2)CC1 (stereo not given)
-2.39

Give me measured viability increase, please, for this compound: O=C(O)CCc1ccc(-c2cccs2)n1NC(=O)c1ccc(Cl)cc1
-3.75

Give me measured viability increase, please, for this compound: Cc1nnc(Sc2nc3c(c(=O)[nH]c(=O)n3C)n2CCCc2ccccc2)s1
-2.42

Give me measured viability increase, please, for this compound: CN(CC(=O)NCCC1=CCCCC1)S(=O)(=O)c1ccc2c(c1)c(=O)n(C)c(=O)n2C
-1.64

Give me measured viability increase, please, for this compound: COc1ccccc1C(=O)Nc1nnc(-c2ccc(F)cc2)o1
0.01

Give me measured viability increase, please, for this compound: COC(=O)C1=C(C)NC(=O)NC1c1cn(-c2ccccc2)nc1-c1cccs1 (stereo not given)
-1.94

Give me measured viability increase, please, for this compound: Cn1nc(-c2ccc(Cl)cc2)c2cc(C(=O)NCCCN3CCCC3)sc21
-8.31

Give me measured viability increase, please, for this compound: O=C1C(Cl)=C(N2CCOCC2)C(=O)N1c1ccccc1Cl
-2.16

Give me measured viability increase, please, for this compound: CCOC(=O)Cc1csc(NC(=O)CN(C)S(=O)(=O)c2cccc3cccnc23)n1
-4.61

Give me measured viability increase, please, for this compound: CCCCC(=O)Nc1nc2c(OC)ccc(OC)c2s1
-2.98

Give me measured viability increase, please, for this compound: Cc1c(C(=O)Nc2ccncc2)sc2nc(-c3ccccc3)cn12
2.2

Give me measured viability increase, please, for this compound: CC(=O)NCC(=O)NC1(C(=O)NC2CCCC2)CCCCC1
-0.35

Give me measured viability increase, please, for this compound: CCCOc1ccc(NC(=O)c2c(-c3ccccc3)noc2C)cc1
-1.84

Give me measured viability increase, please, for this compound: COc1cc(O)c(NC(C)=O)c2nonc12
0

Give me measured viability increase, please, for this compound: Cc1nn(-c2ccccc2)c(C)c1NC(=O)Cc1cccs1
-2.07

Give me measured viability increase, please, for this compound: COCCNC(=O)CS(=O)(=O)Cc1nc(-c2ccc(C)cc2)oc1C
-0.43

Give me measured viability increase, please, for this compound: NC(=O)C1CCN(C(=O)c2ccc(CS(=O)(=O)c3c(Cl)cccc3Cl)o2)CC1
-0.98

Give me measured viability increase, please, for this compound: COc1ccc(C2(O)CCN(C(=O)Cc3cccnc3)CC2)cc1
1.04

Give me measured viability increase, please, for this compound: Cn1c(CNC(=O)c2ccc(F)cc2)nc2ccccc21
-2.48

Give me measured viability increase, please, for this compound: O=C(c1nnc(Cc2ccc(Cl)cc2)o1)N1CCOCC1
-0.86

Give me measured viability increase, please, for this compound: COc1ccc(OC)c(NC(=O)CNC(=O)Cn2ccc3ccccc3c2=O)c1
-1.6

Give me measured viability increase, please, for this compound: COC(=O)C1CCN(C(=O)c2ccccc2NC(C)=O)CC1
-0.52

Give me measured viability increase, please, for this compound: COc1ccc(N(CC(=O)N2CC=C(c3ccccc3)CC2)S(=O)(=O)c2c(C)noc2C)cc1
-4.79

Give me measured viability increase, please, for this compound: c1ccc(-c2noc(CN3CCN(c4ccccc4)CC3)n2)cc1
-2.27

Give me measured viability increase, please, for this compound: COc1ccc(CN2CC34C=CC(O3)C(C(=O)O)C4C2=O)cc1 (stereo not given)
-0.17

Give me measured viability increase, please, for this compound: COc1ccccc1S(=O)(=O)Cc1ccc(C(=O)NCCN(C)C)o1
-0.73

Give me measured viability increase, please, for this compound: Cc1cc(NC(=O)c2cc(CC(C)C)on2)no1
-1.75

Give me measured viability increase, please, for this compound: CCCCc1ccc(Nc2ncnc3nc[nH]c23)cc1
2.8

Give me measured viability increase, please, for this compound: Cc1ccccc1-c1nnc(SCC(=O)Nc2ccc3c(c2)OCCO3)n1N
-2.18

Give me measured viability increase, please, for this compound: COc1ccc(C2N(c3cc(Cl)ccc3OC)C(=O)C3CCCN32)cc1OC (stereo not given)
-1.86

Give me measured viability increase, please, for this compound: O=C(c1ccc2nc(N3CCCCC3)sc2c1)N1CCN(Cc2ccc3c(c2)OCO3)CC1
1.03

Give me measured viability increase, please, for this compound: COc1cccc(C2NC(=O)NC(O)(C(F)(F)F)C2C(=O)c2cccnc2)c1OC (stereo not given)
0.64

Give me measured viability increase, please, for this compound: O=c1oc(-c2cccs2)nc2sc3c(c12)CCCCC3
1.51

Give me measured viability increase, please, for this compound: COc1ccc(Nc2ncnc3c2oc2ccccc23)cc1
-2.52

Give me measured viability increase, please, for this compound: Brc1ccc2c(c1)c1nc3ccccc3nc1n2CCN1CCOCC1
-5.95

Give me measured viability increase, please, for this compound: Cc1nc2sc(C(c3cccs3)N3CCN(Cc4ccccc4)CC3)c(O)n2n1 (stereo not given)
-1.47

Give me measured viability increase, please, for this compound: Cc1nn(Cc2c(Cl)cccc2Cl)c(C)c1NC(=O)c1cc(C(C)C)on1
-1.33

Give me measured viability increase, please, for this compound: COc1cccc(N2C(=O)C3CCCN3C2c2ccc(Cl)cc2)c1 (stereo not given)
-2.51

Give me measured viability increase, please, for this compound: CCNc1nc(C)nc2c1oc1ccccc12
0.92

Give me measured viability increase, please, for this compound: O=C(Nc1ccc(Br)cc1F)C1CCCN(S(=O)(=O)c2cnc[nH]2)C1 (stereo not given)
2.99
